Molecular target: F508delCFTR cell surface expression in CFBE41o-F508delCFTR-HRP cells (Homo sapiens, UniProt P13569, DEL508-508)
Construct: fused on or other part: Horseradish peroxidase (HRP) reporter inserted in the fourth exofacial (extracellular) loop of CFTR; expression is doxycycline-inducible
Sequence (P13569 with tags, fused parts or gaps DEL508-508 limits assumed): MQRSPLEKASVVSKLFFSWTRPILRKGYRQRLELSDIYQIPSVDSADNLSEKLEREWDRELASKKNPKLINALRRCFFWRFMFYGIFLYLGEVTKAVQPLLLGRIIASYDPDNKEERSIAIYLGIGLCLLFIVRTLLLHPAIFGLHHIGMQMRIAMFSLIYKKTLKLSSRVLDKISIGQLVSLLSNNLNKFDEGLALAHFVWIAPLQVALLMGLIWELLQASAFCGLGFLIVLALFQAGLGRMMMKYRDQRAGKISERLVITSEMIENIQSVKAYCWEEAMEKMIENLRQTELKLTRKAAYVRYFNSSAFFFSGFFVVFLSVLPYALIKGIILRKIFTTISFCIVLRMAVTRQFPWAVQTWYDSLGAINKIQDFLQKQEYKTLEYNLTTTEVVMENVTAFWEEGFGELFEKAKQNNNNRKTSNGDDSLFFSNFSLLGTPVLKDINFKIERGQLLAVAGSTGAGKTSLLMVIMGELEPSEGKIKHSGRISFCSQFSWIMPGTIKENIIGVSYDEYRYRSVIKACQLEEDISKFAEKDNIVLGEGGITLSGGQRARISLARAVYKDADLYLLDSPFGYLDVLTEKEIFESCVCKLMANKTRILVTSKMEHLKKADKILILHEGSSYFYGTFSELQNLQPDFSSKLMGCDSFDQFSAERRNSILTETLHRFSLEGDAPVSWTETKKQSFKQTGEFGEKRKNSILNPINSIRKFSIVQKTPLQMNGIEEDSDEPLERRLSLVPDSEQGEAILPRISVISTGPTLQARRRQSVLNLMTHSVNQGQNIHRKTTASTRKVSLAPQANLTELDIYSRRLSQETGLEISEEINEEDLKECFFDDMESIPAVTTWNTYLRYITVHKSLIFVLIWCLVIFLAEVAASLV
Sequence (P13569 919-1480 limits assumed, stated change not applied): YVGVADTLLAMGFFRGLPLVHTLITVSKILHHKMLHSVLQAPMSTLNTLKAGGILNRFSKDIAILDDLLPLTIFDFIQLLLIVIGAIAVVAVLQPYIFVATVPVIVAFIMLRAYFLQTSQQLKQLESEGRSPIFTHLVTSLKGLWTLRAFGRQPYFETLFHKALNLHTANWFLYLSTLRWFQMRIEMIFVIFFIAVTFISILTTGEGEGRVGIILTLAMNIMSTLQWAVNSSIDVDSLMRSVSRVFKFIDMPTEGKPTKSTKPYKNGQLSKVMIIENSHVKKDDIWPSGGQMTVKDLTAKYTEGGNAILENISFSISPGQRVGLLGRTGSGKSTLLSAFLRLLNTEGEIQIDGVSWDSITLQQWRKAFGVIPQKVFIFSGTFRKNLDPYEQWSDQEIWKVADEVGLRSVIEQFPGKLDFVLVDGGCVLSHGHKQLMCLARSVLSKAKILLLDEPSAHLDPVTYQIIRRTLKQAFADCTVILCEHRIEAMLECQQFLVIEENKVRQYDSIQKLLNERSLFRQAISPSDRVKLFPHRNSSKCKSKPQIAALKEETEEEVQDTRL
Test: Cell Surface Expression-Horse Radish Peroxidase (CSE-HRP) Assay
Details: CFBE41o-F508delCFTR-HRP cells, 18-24 hours at 33° C., 8-point curve, highest concentration 20 μM
readout: pEC50
The read-out pEC50 is expressed as -log10 of concentration in moles per litre.

Answer with the recorded pEC50 of C[C@]1(C(=O)Nc2cccc(N3CC4CCCC4(C(=O)O)C3)n2)COc2cc3c(cc21)OC(F)(F)O3 (stereo partly drawn) [Example 117] only.
5.86

Answer with the recorded pEC50 of Cc1ccc(NC(=O)C2(C)COc3cc4c(cc32)OC(F)(F)O4)nc1-c1cccc(C(N)=O)c1 (stereo not drawn) [Example 74] only.
6.15

Answer with the recorded pEC50 of C[C@]1(C(=O)N[C@@H]2C[C@H]([C@H]3CC[C@H](C(=O)N4CCC(O)CC4)CC3)Oc3cc(OC(F)(F)F)ccc32)COc2cc3c(cc21)OC(F)(F)O3 [Example 265] only.
7.10

Answer with the recorded pEC50 of CCN(CCO)C(=O)c1ccc([C@H]2C[C@@H](NC(=O)[C@@]3(C)COc4cc5c(cc43)OC(F)(F)O5)c3ccc(OC)cc3O2)nc1 [Example 235] only.
7.30

Answer with the recorded pEC50 of Cc1ccc(NC(=O)C2(C)COc3cc4c(cc32)OC(F)(F)O4)nc1-c1cccc(C(=O)OC(C)(C)C)c1 (stereo not drawn) [Example 1] only.
5.69

Answer with the recorded pEC50 of CC1(C)OC[C@@H](Cn2nc(-c3ccccc3)cc(NC(=O)[C@@]3(C)COc4cc5c(cc43)OC(F)(F)O5)c2=O)O1 [Example 26] only.
6.01

Answer with the recorded pEC50 of C[C@]1(C(=O)Nc2cccc(-c3cc(C(=O)O)ccc3F)n2)COc2cc3c(cc21)OC(F)(F)O3 [Example 128] only.
5.30

Answer with the recorded pEC50 of C[C@]1(C(=O)N[C@H]2C[C@@H]([C@H]3CC[C@H](C(=O)O)CC3)Oc3cc(OC(F)F)ccc32)COc2cc3c(cc21)OC(F)(F)O3 [Example 163] only.
6.09

Answer with the recorded pEC50 of COc1ccc2c(c1)O[C@@H](c1cccc(C(=O)O)c1)C[C@H]2NC(=O)[C@@]1(C)CCc2cc3c(cc21)OC(F)(F)O3 (single isomer, unassigned) [Example 57] only.
5.75

Answer with the recorded pEC50 of COc1ccc2c(c1)O[C@@H](c1ccc(C(=O)N3CCN(CCO)CC3)cn1)C[C@H]2NC(=O)[C@@]1(C)COc2cc3c(cc21)OC(F)(F)O3 [Example 213] only.
7.10

Answer with the recorded pEC50 of CCN(CCO)C(=O)[C@H]1CC[C@H]([C@H]2C[C@@H](NC(=O)[C@@]3(C)COc4cc5c(cc43)OC(F)(F)O5)c3ccc(OC(F)(F)F)cc3O2)CC1 [Example 253] only.
7.22

Answer with the recorded pEC50 of C[C@]1(C(=O)N[C@@H]2C[C@H](C3(C(=O)O)CC3)Oc3cc(OC(F)(F)F)ccc32)COc2cc3c(cc21)OC(F)(F)O3 [Example 166] only.
7.52

Answer with the recorded pEC50 of COCC(CO)NC(=O)c1ccc([C@H]2C[C@@H](NC(=O)[C@@]3(C)COc4cc5c(cc43)OC(F)(F)O5)c3ccc(OC)cc3O2)nc1 (stereo partly drawn) [Example 246] only.
7.10

---

Target: F508delCFTR cell surface expression in CFBE41o-F508delCFTR-HRP cells (Homo sapiens, UniProt P13569, DEL508-508)
Construct: fused on or other part: Horseradish peroxidase (HRP) reporter inserted in the fourth exofacial (extracellular) loop of CFTR; expression is doxycycline-inducible
Test: Cell Surface Expression-Horse Radish Peroxidase (CSE-HRP) Assay
Type: cell-based
Conditions: maximum at any tested concentration, normalized to on-plate positive control (3 μM)
readout: Maximum % activity (%)
State the answer as a number, implicitly in %.

Answer with the recorded Maximum % activity (%) of `CC1(C)CCN(c2cccc(NC(=O)[C@@]3(C)COc4cc5c(cc43)OC(F)(F)O5)n2)C1` only.
116

Answer with the recorded Maximum % activity (%) of `COc1ccc2c(c1)O[C@@H](c1cnc(C(=O)O)cn1)C[C@H]2NC(=O)[C@@]1(C)COc2cc3c(cc21)OC(F)(F)O3` only.
157

Answer with the recorded Maximum % activity (%) of `Cc1ccc(NC(=O)[C@@]2(C)COc3cc4c(cc32)OC(F)(F)O4)nc1-c1cc(C(=O)O)cs1` only.
140

Answer with the recorded Maximum % activity (%) of `CC(C)(C)c1cc2cc(NC(=O)[C@@]3(C)COc4cc5c(cc43)OC(F)(F)O5)c(F)cc2n1C[C@@H](O)COCc1ccccc1` only.
138

Answer with the recorded Maximum % activity (%) of `C[C@]1(C(=O)N[C@@H]2C[C@H]([C@H]3CC[C@H](C(=O)N(CCO)Cc4ccccc4)CC3)Oc3cc(OC(F)(F)F)ccc32)COc2cc3c(cc21)OC(F)(F)O3` only.
186

Answer with the recorded Maximum % activity (%) of CC1(C(=O)Nc2cccc(-c3ccccc3)n2)COc2cc3c(cc21)OC(F)(F)O3 (stereo not shown) only.
159

Answer with the recorded Maximum % activity (%) of `COc1ccc2c(c1)O[C@@H]([C@H]1CC[C@H](C(=O)O)CC1)C[C@H]2NC(=O)[C@@]1(C)COc2cc3c(cc21)OC(F)(F)O3` only.
137

---

Consider the following compounds; for each one, report its EC50.
Molecular target: F508delCFTR in primary hBE cells with F508del/F508del CFTR mutation (Homo sapiens, UniProt P13569, DEL508-508)
Construct: cells isolated from CF patients with the homozygous mutation; endogenous in cells
Sequence (P13569 with tags, fused parts or gaps DEL508-508): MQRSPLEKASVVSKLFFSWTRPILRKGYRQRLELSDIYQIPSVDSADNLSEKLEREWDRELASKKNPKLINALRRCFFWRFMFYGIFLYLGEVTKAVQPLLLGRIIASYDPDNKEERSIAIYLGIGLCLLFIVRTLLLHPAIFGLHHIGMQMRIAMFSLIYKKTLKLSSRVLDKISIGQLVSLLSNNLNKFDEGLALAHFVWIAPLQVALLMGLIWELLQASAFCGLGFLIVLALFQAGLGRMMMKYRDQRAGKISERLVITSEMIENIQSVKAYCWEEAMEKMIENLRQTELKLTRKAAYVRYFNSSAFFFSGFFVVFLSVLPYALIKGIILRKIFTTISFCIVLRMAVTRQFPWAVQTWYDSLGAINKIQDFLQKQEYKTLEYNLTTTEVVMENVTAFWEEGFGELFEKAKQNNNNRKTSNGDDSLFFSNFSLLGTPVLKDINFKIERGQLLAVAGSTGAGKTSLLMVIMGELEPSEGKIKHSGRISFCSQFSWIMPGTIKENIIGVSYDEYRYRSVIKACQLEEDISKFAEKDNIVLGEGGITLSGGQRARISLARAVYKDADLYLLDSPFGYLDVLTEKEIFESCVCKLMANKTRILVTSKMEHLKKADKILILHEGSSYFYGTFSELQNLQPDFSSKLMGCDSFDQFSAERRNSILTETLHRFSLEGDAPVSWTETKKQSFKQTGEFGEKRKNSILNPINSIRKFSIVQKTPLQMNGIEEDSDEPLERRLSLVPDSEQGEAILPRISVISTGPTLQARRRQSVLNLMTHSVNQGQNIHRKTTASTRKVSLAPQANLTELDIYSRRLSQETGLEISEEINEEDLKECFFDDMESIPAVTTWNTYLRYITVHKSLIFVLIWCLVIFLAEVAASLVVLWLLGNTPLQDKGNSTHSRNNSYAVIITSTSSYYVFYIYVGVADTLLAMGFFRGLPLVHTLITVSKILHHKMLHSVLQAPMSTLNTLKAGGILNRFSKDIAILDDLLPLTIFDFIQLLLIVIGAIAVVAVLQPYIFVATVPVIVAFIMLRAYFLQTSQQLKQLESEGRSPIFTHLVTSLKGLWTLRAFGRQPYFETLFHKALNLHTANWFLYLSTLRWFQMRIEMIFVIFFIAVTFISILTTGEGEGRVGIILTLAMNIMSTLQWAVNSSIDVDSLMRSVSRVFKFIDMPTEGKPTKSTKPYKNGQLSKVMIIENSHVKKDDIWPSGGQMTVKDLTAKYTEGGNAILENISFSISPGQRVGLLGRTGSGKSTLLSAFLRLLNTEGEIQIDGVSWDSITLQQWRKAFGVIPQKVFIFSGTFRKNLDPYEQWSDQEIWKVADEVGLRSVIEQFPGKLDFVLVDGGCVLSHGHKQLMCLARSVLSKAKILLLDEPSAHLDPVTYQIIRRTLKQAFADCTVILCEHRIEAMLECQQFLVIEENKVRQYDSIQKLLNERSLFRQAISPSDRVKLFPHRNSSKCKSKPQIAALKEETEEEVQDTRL
Test: Transepithelial Clamp Circuit on Human Bronchial Epithelial Cells Conductance Assay (hBE-TECC)
Conditions: primary hBE cells F508del/F508del, 18-24 hours at 37° C., equivalent short circuit current, 6 concentrations
State the answer as a number, implicitly in nM.

Answer with the recorded EC50 of `Cc1ccc(NC(=O)[C@@]2(C)COc3cc4c(cc32)OC(F)(F)O4)nc1-c1cccc(C(=O)O)c1` only.
199

Answer with the recorded EC50 of `C[C@]1(C(=O)N[C@@H]2C[C@H]([C@H]3CC[C@H](C(=O)NCCO)CC3)Oc3cc(OC(F)(F)F)ccc32)COc2cc3c(cc21)OC(F)(F)O3` only.
21

Answer with the recorded EC50 of COc1ccc2c(c1)O[C@@H](c1cnc(C(O)CO)cn1)C[C@H]2NC(=O)[C@@]1(C)COc2cc3c(cc21)OC(F)(F)O3 (stereo partly shown) only.
43

Answer with the recorded EC50 of `COc1ccc2c(c1)O[C@@H](c1ccc(C(=O)N3C[C@@H](O)[C@H](O)C3)cn1)C[C@H]2NC(=O)[C@@]1(C)COc2cc3c(cc21)OC(F)(F)O3` only.
32

Answer with the recorded EC50 of `COc1ccc2c(c1)O[C@@H](c1cnc(N3C[C@@H](O)[C@H](O)C3)cn1)C[C@H]2NC(=O)[C@@]1(C)COc2cc3c(cc21)OC(F)(F)O3` only.
1

Answer with the recorded EC50 of `COc1ccc2c(c1)O[C@@H](c1ccc(C(=O)O)cc1)C[C@H]2NC(=O)[C@@]1(C)COc2cc3c(cc21)OC(F)(F)O3` only.
11

Answer with the recorded EC50 of `C[C@]1(C(=O)N[C@@H]2C[C@H]([C@H]3CC[C@H](C(=O)N4C[C@H](O)[C@@H](O)C4)CC3)Oc3cc(OC(F)(F)F)ccc32)COc2cc3c(cc21)OC(F)(F)O3` only.
10

Answer with the recorded EC50 of C[C@]1(C(=O)N[C@H]2C[C@@H](c3ccccc3)O[C@@H](c3ccc(C(=O)O)cc3)C2)COc2cc3c(cc21)OC(F)(F)O3 (single isomer, unassigned) only.
246

Answer with the recorded EC50 of `COc1ccc2c(c1)O[C@@H](c1ccc(CO)nc1)C[C@H]2NC(=O)[C@@]1(C)COc2cc3c(cc21)OC(F)(F)O3` only.
66

Answer with the recorded EC50 of `COc1ccc2c(c1)O[C@@H](c1ccc(=O)[nH]n1)C[C@H]2NC(=O)[C@@]1(C)COc2cc3c(cc21)OC(F)(F)O3` only.
6

---

Molecular target: F508delCFTR cell surface expression in CFBE41o-F508delCFTR-HRP cells (Homo sapiens, UniProt P13569, DEL508-508)
Construct: fused on or other part: Horseradish peroxidase (HRP) reporter inserted in the fourth exofacial (extracellular) loop of CFTR; expression is doxycycline-inducible
Assay: Cell Surface Expression-Horse Radish Peroxidase (CSE-HRP) Assay
Conditions: CFBE41o-F508delCFTR-HRP cells, 18-24 hours at 33° C., 8-point curve, highest concentration 20 μM
readout: pEC50
The read-out pEC50 is expressed as -log10 of concentration in moles per litre.

Answer with the recorded pEC50 of Cc1ccc(NC(=O)C2(C)COc3cc4c(cc32)OC(F)(F)O4)cc1-c1cccc(C(=O)O)c1 (centres unmarked) only.
6.20

Answer with the recorded pEC50 of `C[C@]1(C(=O)N[C@H]2C[C@@H]([C@H]3CC[C@H](C(=O)O)CC3)Oc3cc(OC(F)(F)F)ccc32)COc2cc3c(cc21)OC(F)(F)O3` only.
5.66

Answer with the recorded pEC50 of COc1ccc2c(c1)O[C@@H](c1cnc(C(O)CO)cn1)C[C@H]2NC(=O)[C@@]1(C)COc2cc3c(cc21)OC(F)(F)O3 (some centres unmarked) only.
6.66

Answer with the recorded pEC50 of `C[C@]1(C(=O)N[C@@H]2C[C@H](c3ccc(C(=O)O)cc3)Oc3cc(OC(F)F)ccc32)COc2cc3c(cc21)OC(F)(F)O3` only.
7.70

Hello, the source for this data is patent US9840513B2, in case you need it.
